Record form. Attribute: IC50. Fill in for each entry.
- Test system: EB2
- Assay: MTT cell viability assay
- Format: cell-based
- Measurement setup: Homo sapiens; EB2, Burkitt Lymphoma, RPMI 10% FBS
Answer shape: numeric part, then the unit.

Use the examples below as a reference point.
Nc1cc(C(F)(F)F)c(-c2cc(N3CCOCC3)nc(N3CCOCC3)n2)cn1 : 1070 nM
Cn1c(=O)n(-c2ccc(C(C)(C)C#N)cc2)c2c3cc(-c4cnc5ccccc5c4)ccc3ncc21 : 70.2 nM

The record that follows has no IC50 shown yet.
Recorded IC50 of COc1ccc(-c2ccc3ncc4c(c3c2)n(-c2ccc(N3CCNCC3)c(C(F)(F)F)c2)c(=O)n4C)cn1 , please. 199 nM

###

- Tested on: RPMI8402
- Assay: MTT cell viability assay
- Format: cell-based
- Measurement setup: Homo sapiens, RPMI 8402; RPMI8402, T-cell, RPMI 10% FBS
Measurement type: pIC50
Answers are plain numbers, as −log10 of the molar value.

Consider the following items and state reported pIC50 for each.
1. Nc1cc(C(F)(F)F)c(-c2cc(N3CCOCC3)nc(N3CCOCC3)n2)cn1
2. Cn1c(=O)n(-c2ccc(C(C)(C)C#N)cc2)c2c3cc(-c4cnc5ccccc5c4)ccc3ncc21

1: 5.91; 2: 6.66
